# maps each entry to its T/C
# Test system: CD2F1 mice, L1210 leukemia ip, survival T/C
# Measurement Description: NCI In Vivo Anticancer Drug Screen. Data for tumor model L1210 Leukemia (intraperitoneal) in CD2F1 (CDF1) mice
# Condition Notes: endpoint: mean survival time; dose: 50.0 mg/kg/injection; schedule: Q01DX009 (ip); vehicle: other; higher = longer survival
Inconclusive results and toxic doses are left out.
Readout: T/C

{"Compound": "Nc1c(Cl)cc(Cl)c(-c2c(Cl)cc(Cl)c(N)c2Cl)c1Cl", "Result": "101 % of control"}
{"Compound": "CCOC(=O)C(C(=O)OCC)N(Cc1ccccc1)Cc1ccccc1", "Result": "96 % of control"}
{"Compound": "O=[N+]([O-])c1ccc2ncccc2c1", "Result": "105 % of control"}
{"Compound": "COc1ccc(OC)c2c1CCC(=O)C2", "Result": "102 % of control"}
{"Compound": "O=C(NCCCCC(NC(=O)OCc1ccccc1)C(=O)ON1C(=O)CCC1=O)OCc1ccccc1 (configuration not stated)", "Result": "90 % of control"}
{"Compound": "COc1ccc2nc3cc(Cl)ccc3c(Nc3ccc(NC(C)=O)cc3)c2n1", "Result": "86 % of control"}
{"Compound": "CC(O)C(=O)Oc1ccccc1 (configuration not stated)", "Result": "92 % of control"}

----------
# Test system: CD2F1 mice, L1210 leukemia ip, survival T/C
# Measurement Description: NCI In Vivo Anticancer Drug Screen. Data for tumor model L1210 Leukemia (intraperitoneal) in CD2F1 (CDF1) mice
# Condition Notes: endpoint: mean survival time; dose: 200.0 mg/kg/injection; schedule: Q04DX003 (ip); vehicle: Klucel (hydroxypropylcellulose) (HPC); higher = longer survival
Inconclusive results and toxic doses are left out.

{"Smiles Notation": "CC(C)(C)OC(=O)C(CC(=O)O)=C(c1ccccc1)c1ccccc1", "T/C": "103 % of control"}
{"Smiles Notation": "O=C(N/N=C/c1ccc(Cl)c(Cl)c1)c1ccccc1", "T/C": "88 % of control"}
{"Smiles Notation": "O=C1c2cccc(Cl)c2C(=O)c2c1cccc2[N+](=O)[O-]", "T/C": "102 % of control"}
{"Smiles Notation": "O=C(c1ccccc1)C1(Br)CCCCC1", "T/C": "96 % of control"}
{"Smiles Notation": "O=C1C(c2ccccc2)=S=C2Sc3ccccc3N12", "T/C": "103 % of control"}
{"Smiles Notation": "COc1ccc(NC(=O)Nc2nccs2)c(Cl)c1", "T/C": "102 % of control"}
{"Smiles Notation": "N/C(=N/N=C/c1ccc(O)cc1)N[N+](=O)[O-]", "T/C": "86 % of control"}
{"Smiles Notation": "O=C(N/N=C/c1ccccc1)c1ccccc1O", "T/C": "94 % of control"}

----------
# Tested on: CD2F1 mice, L1210 leukemia ip, survival T/C
# Measurement Description: NCI In Vivo Anticancer Drug Screen. Data for tumor model L1210 Leukemia (intraperitoneal) in CD2F1 (CDF1) mice
# Condition Notes: endpoint: mean survival time; dose: 200.0 mg/kg/injection; schedule: Q01DX009 (ip); vehicle: saline with Tween-80; higher = longer survival
Toxic doses and inconclusive results are not listed.

{"Compound": "O=C1c2ccccc2C(=O)N1Cc1ccc([N+](=O)[O-])cc1Cl", "Target Under Test": "CD2F1 mice, L1210 leukemia ip, survival T/C", "T/C": "94 % of control"}
{"Compound": "COC(=O)C1CN=NC1C(=O)OC (stereo unspecified)", "Target Under Test": "CD2F1 mice, L1210 leukemia ip, survival T/C", "T/C": "95 % of control"}
{"Compound": "COC(=O)c1ccc(OCc2ccccc2)c([N+](=O)[O-])c1", "Target Under Test": "CD2F1 mice, L1210 leukemia ip, survival T/C", "T/C": "97 % of control"}
{"Compound": "CC(=O)/C(C)=C\\c1ccccc1", "Target Under Test": "CD2F1 mice, L1210 leukemia ip, survival T/C", "T/C": "94 % of control"}
{"Compound": "C=CCCCCCCCCCCC(=O)OC", "Target Under Test": "CD2F1 mice, L1210 leukemia ip, survival T/C", "T/C": "106 % of control"}
{"Compound": "Nc1nc(N)c(N=Nc2ccc(S(=O)(=O)c3ccc(N=Nc4c(N)nc(N)[nH]c4=O)cc3)cc2)c(=O)[nH]1", "Target Under Test": "CD2F1 mice, L1210 leukemia ip, survival T/C", "T/C": "92 % of control"}

----------
# Test system: CD2F1 mice, L1210 leukemia ip, survival T/C
# Measurement Description: NCI In Vivo Anticancer Drug Screen. Data for tumor model L1210 Leukemia (intraperitoneal) in CD2F1 (CDF1) mice
# Condition Notes: endpoint: mean survival time; dose: 200.0 mg/kg/injection; schedule: Q01DX009 (ip); vehicle: Klucel (hydroxypropylcellulose) (HPC); higher = longer survival
Inconclusive results and toxic doses are left out.

{"Smiles Notation": "COc1ccc(OC)c(NC(=O)Oc2cccc(NC(C)=O)c2)c1", "Target Under Test": "CD2F1 mice, L1210 leukemia ip, survival T/C", "T/C": "100 % of control"}
{"Smiles Notation": "COc1ccc(NC(=O)Nc2c(C)n(C)n(-c3ccccc3)c2=O)c(Cl)c1", "Target Under Test": "CD2F1 mice, L1210 leukemia ip, survival T/C", "T/C": "95 % of control"}
{"Smiles Notation": "COc1ccc(/C=C(/C)C(=O)c2ccccc2)cc1", "Target Under Test": "CD2F1 mice, L1210 leukemia ip, survival T/C", "T/C": "97 % of control"}
{"Smiles Notation": "Nc1ccccc1OCCCn1cc(-c2ccc(Cl)c(Cl)c2)c(N)nc1=O", "Target Under Test": "CD2F1 mice, L1210 leukemia ip, survival T/C", "T/C": "90 % of control"}
{"Smiles Notation": "COC(=O)/C(=N\\NS(=O)(=O)c1ccc(C)cc1)c1ccccc1", "Target Under Test": "CD2F1 mice, L1210 leukemia ip, survival T/C", "T/C": "91 % of control"}
{"Smiles Notation": "CC/C(=N/NS(=O)(=O)c1ccc(C)cc1)C(=O)O", "Target Under Test": "CD2F1 mice, L1210 leukemia ip, survival T/C", "T/C": "93 % of control"}

----------
# maps each entry to its T/C
# Test system: CD2F1 mice, L1210 leukemia ip, survival T/C
# Measurement Description: NCI In Vivo Anticancer Drug Screen. Data for tumor model L1210 Leukemia (intraperitoneal) in CD2F1 (CDF1) mice
# Condition Notes: endpoint: mean survival time; dose: 100.0 mg/kg/injection; schedule: Q01DX001 (ip); vehicle: saline; higher = longer survival
Inconclusive results and toxic doses are left out.
Readout: T/C

{"Compound": "O=C1C2C3C=CC(O3)C2C(=O)N1Cc1ccncc1 (configuration not stated)", "Result": "108 % of control"}
{"Compound": "c1ccc(-c2nn[nH]n2)nc1", "Result": "101 % of control"}
{"Compound": "COC1(O)C(=O)c2ccccc2OC1(OC)c1ccc(Cl)cc1 (configuration not stated)", "Result": "102 % of control"}
{"Compound": "CCOC(=O)C(CC)(OC(C)=O)C(=O)C[n+]1ccccc1 (configuration not stated)", "Result": "108 % of control"}
{"Compound": "CC(C)[NH-].CC(C)[NH-].O.O.[Cl][Pt+2][Cl]", "Result": "112 % of control"}
{"Compound": "COC(=O)CC(CC(=O)OC)N1CC=CC1", "Result": "100 % of control"}
{"Compound": "O[C@@H](c1ccccc1)[C@@H](c1ccccc1)N1CCCCC1", "Result": "96 % of control"}
{"Compound": "CC(=O)c1cc(-c2ccccc2)nc2c(Cl)cc(Cl)cc12", "Result": "102 % of control"}
{"Compound": "CCCC(C)(C)OC(=O)c1ccc([N+](=O)[O-])cc1", "Result": "96 % of control"}
{"Compound": "COc1ccc2c(c1)C1(C)CCCC(C#N)=C1CC2 (configuration not stated)", "Result": "96 % of control"}
{"Compound": "O=c1cc2c(=O)oc3cc(O)c(O)oc3c2c(O)c1O", "Result": "101 % of control"}
{"Compound": "O=C(Nc1cccc2ccccc12)N(c1ccccc1)c1ccccc1", "Result": "105 % of control"}
{"Compound": "COC(OC)C(OC(C)=O)C(OC(C)=O)C(COC(C)=O)OC(C)=O (configuration not stated)", "Result": "107 % of control"}
{"Compound": "NC(=S)N/N=C/C(=O)c1ccc(Br)cc1", "Result": "102 % of control"}
{"Compound": "O=C(C[P+](c1ccccc1)(c1ccccc1)c1ccccc1)C[P+](c1ccccc1)(c1ccccc1)c1ccccc1", "Result": "97 % of control"}
{"Compound": "CCCCCCCCCCCC(CCCCCCC)c1ccc(C)cc1 (configuration not stated)", "Result": "91 % of control"}
{"Compound": "CCN(CC)CCCN(CC(=O)O)CC(=O)O", "Result": "103 % of control"}
{"Compound": "CC(=O)Nc1ccsc1", "Result": "96 % of control"}
{"Compound": "CCCCCCCCCCCCN(C)C", "Result": "100 % of control"}
{"Compound": "O=NC1C2C=CC(C2)C1Cl (configuration not stated)", "Result": "93 % of control"}
{"Compound": "Cc1[nH]c(=S)[nH]c(=O)c1CCS", "Result": "104 % of control"}
{"Compound": "C=C(Cl)C(C)(C)C", "Result": "100 % of control"}
{"Compound": "NC(=O)CCC(=O)NCCN1CC1", "Result": "104 % of control"}
{"Compound": "CC(=O)Oc1ccccc1C(CC(C)C)OC(C)=O (configuration not stated)", "Result": "96 % of control"}
{"Compound": "[O-][n+]1ccccc1F", "Result": "104 % of control"}
{"Compound": "CN(C(=O)Nc1ccc([N+](=O)[O-])cc1)c1ccccc1", "Result": "96 % of control"}
{"Compound": "Cc1cc(-c2ccccc2)c2c(C#N)cn(-c3ccccc3)c2n1", "Result": "87 % of control"}

Cited source for all entries: PubChem BioAssay AID256
